Value source: ChEMBL document CHEMBL3784931

Test protocol: Terminal half life in Wistar rat brain at 10 mg/kg, po after 0.5 to 72 hrs by HPLC analysis
Format: ADME, organism-based
Conditions: read-out: beta t1/2 (converted)
Result type: half-life (h)
Give your result in h as a bare value.

Given item CCCCc1nc(Cl)c(C(=O)O)n1Cc1ccc(-c2ccccc2-c2noc(=O)[nH]2)cc1 , the value recorded as its half-life is 16.9

* * *

Test protocol: Tmax in Wistar rat stomach at 10 mg/kg, po after 0.5 to 72 hrs by HPLC analysis
Assay type: ADME, organism-based
Result type: Tmax (min)
Give your result in min as a bare value.

Given item CCCCc1nc(Cl)c(C(=O)O)n1Cc1ccc(-c2ccccc2-c2noc(=O)[nH]2)cc1 , the value recorded as its Tmax is 30

* * *

Test protocol: Cmax in Wistar rat lung at 10 mg/kg, po after 0.5 to 72 hrs by HPLC analysis
Type: ADME, organism-based
Parameters: dose 10 mg/kg, route oral
Result type: Cmax (ng/g)
Give your result in ng/g as a bare value.

Given item CCCCc1nc(Cl)c(C(=O)O)n1Cc1ccc(-c2ccccc2-c2noc(=O)[nH]2)cc1 , the value recorded as its Cmax is 9.16

* * *

Test protocol: Tmax in Wistar rat heart at 10 mg/kg, po after 0.5 to 72 hrs by HPLC analysis
Assay type: ADME, organism-based
Result type: Tmax
Don't forget the unit after the number, please.

Given item CCCCc1nc(Cl)c(C(=O)O)n1Cc1ccc(-c2ccccc2-c2noc(=O)[nH]2)cc1 , the value recorded as its Tmax is 30 min

* * *

Test protocol: Elimination rate constant in Wistar rat kidney at 10 mg/kg, po after 0.5 to 72 hrs by HPLC analysis
Format: ADME, organism-based
Result type: k el (s⁻¹)
Give your result in s⁻¹ as a bare value.

Given item CCCCc1nc(Cl)c(C(=O)O)n1Cc1ccc(-c2ccccc2-c2noc(=O)[nH]2)cc1 , the value recorded as its k el is 1.11e-05

* * *

Test protocol: Elimination rate constant in Wistar rat heart at 10 mg/kg, po after 0.5 to 72 hrs by HPLC analysis
Assay type: ADME, organism-based
Result type: k el

Given item CCCCc1nc(Cl)c(C(=O)O)n1Cc1ccc(-c2ccccc2-c2noc(=O)[nH]2)cc1 , the value recorded as its k el is 2.11e-05 s⁻¹

* * *

Test protocol: Cmax in Wistar rat plasma at 10 mg/kg, po after 0.5 to 72 hrs by HPLC analysis
Format: ADME, organism-based
Set-up: dose 10 mg/kg, route oral
Result type: Cmax (ng/mL)
Give your result in ng/mL as a bare value.

Given item CCCCc1nc(Cl)c(C(=O)O)n1Cc1ccc(-c2ccccc2-c2noc(=O)[nH]2)cc1 , the value recorded as its Cmax is 10.3

* * *

Test protocol: Elimination rate constant in Wistar rat liver at 10 mg/kg, po after 0.5 to 72 hrs by HPLC analysis
Type: ADME, organism-based
Result type: k el (s⁻¹)
Give your result in s⁻¹ as a bare value.

Given item CCCCc1nc(Cl)c(C(=O)O)n1Cc1ccc(-c2ccccc2-c2noc(=O)[nH]2)cc1 , the value recorded as its k el is 1.94e-05

* * *

Test protocol: Elimination rate constant in Wistar rat brain at 10 mg/kg, po after 0.5 to 72 hrs by HPLC analysis
Assay type: ADME, organism-based
Result type: k el (s⁻¹)
Give your result in s⁻¹ as a bare value.

Given item CCCCc1nc(Cl)c(C(=O)O)n1Cc1ccc(-c2ccccc2-c2noc(=O)[nH]2)cc1 , the value recorded as its k el is 1.14e-05
